# Study system: Voltage-dependent N-type calcium channel subunit alpha-1B (Homo sapiens)
# Assay procedure: disruptors of CaV2.2 binding to Mint1 – biochemical, HTRF (AID 2073)
# Condition context: HTRF protein-protein interaction, Mint1-CaV2.2; at 20 µM
About 570 (0.2%) of roughly 290,000 compounds were called active. Roughly 1% stayed inconclusive and do not appear here. No stated cut-off is given here; in the data, active means inhibition mostly above about 51% (no sharp cut-off); inconclusive means no clear call, values can overlap the other calls; inactive means mostly below about 53%. What follows is part of a selection rich in actives, with near analogues and random picks from the rest.
Choose the fitting class; nothing outside 1 (active), -1 (inactive) is accepted.

These solved cases illustrate the format of a correct answer.
>>> class_assignment("O=C(CSc1nc2ccccc2c(=O)[nH]1)Nc1ccccc1O")
-1
>>> class_assignment("CCOc1ccccc1C(=O)NC(C(=O)Nc1cccnc1)C(C)C (configuration not stated)")
-1
>>> class_assignment("Clc1ccc2nnnc(-c3ccccc3)c2c1")
-1

# outcome recorded in this test, key = Cc1ccc(N2CCN(C(=S)Nc3ccccc3C)CC2)cc1
-1

Another compound to check: OCCNc1nc(-c2ccccc2)c2cc(Cl)ccc2n1
-1

---

# Study system: Voltage-dependent N-type calcium channel subunit alpha-1B (Homo sapiens) (UniProt Q00975)
# Sequence (Q00975 whole entry, looked up): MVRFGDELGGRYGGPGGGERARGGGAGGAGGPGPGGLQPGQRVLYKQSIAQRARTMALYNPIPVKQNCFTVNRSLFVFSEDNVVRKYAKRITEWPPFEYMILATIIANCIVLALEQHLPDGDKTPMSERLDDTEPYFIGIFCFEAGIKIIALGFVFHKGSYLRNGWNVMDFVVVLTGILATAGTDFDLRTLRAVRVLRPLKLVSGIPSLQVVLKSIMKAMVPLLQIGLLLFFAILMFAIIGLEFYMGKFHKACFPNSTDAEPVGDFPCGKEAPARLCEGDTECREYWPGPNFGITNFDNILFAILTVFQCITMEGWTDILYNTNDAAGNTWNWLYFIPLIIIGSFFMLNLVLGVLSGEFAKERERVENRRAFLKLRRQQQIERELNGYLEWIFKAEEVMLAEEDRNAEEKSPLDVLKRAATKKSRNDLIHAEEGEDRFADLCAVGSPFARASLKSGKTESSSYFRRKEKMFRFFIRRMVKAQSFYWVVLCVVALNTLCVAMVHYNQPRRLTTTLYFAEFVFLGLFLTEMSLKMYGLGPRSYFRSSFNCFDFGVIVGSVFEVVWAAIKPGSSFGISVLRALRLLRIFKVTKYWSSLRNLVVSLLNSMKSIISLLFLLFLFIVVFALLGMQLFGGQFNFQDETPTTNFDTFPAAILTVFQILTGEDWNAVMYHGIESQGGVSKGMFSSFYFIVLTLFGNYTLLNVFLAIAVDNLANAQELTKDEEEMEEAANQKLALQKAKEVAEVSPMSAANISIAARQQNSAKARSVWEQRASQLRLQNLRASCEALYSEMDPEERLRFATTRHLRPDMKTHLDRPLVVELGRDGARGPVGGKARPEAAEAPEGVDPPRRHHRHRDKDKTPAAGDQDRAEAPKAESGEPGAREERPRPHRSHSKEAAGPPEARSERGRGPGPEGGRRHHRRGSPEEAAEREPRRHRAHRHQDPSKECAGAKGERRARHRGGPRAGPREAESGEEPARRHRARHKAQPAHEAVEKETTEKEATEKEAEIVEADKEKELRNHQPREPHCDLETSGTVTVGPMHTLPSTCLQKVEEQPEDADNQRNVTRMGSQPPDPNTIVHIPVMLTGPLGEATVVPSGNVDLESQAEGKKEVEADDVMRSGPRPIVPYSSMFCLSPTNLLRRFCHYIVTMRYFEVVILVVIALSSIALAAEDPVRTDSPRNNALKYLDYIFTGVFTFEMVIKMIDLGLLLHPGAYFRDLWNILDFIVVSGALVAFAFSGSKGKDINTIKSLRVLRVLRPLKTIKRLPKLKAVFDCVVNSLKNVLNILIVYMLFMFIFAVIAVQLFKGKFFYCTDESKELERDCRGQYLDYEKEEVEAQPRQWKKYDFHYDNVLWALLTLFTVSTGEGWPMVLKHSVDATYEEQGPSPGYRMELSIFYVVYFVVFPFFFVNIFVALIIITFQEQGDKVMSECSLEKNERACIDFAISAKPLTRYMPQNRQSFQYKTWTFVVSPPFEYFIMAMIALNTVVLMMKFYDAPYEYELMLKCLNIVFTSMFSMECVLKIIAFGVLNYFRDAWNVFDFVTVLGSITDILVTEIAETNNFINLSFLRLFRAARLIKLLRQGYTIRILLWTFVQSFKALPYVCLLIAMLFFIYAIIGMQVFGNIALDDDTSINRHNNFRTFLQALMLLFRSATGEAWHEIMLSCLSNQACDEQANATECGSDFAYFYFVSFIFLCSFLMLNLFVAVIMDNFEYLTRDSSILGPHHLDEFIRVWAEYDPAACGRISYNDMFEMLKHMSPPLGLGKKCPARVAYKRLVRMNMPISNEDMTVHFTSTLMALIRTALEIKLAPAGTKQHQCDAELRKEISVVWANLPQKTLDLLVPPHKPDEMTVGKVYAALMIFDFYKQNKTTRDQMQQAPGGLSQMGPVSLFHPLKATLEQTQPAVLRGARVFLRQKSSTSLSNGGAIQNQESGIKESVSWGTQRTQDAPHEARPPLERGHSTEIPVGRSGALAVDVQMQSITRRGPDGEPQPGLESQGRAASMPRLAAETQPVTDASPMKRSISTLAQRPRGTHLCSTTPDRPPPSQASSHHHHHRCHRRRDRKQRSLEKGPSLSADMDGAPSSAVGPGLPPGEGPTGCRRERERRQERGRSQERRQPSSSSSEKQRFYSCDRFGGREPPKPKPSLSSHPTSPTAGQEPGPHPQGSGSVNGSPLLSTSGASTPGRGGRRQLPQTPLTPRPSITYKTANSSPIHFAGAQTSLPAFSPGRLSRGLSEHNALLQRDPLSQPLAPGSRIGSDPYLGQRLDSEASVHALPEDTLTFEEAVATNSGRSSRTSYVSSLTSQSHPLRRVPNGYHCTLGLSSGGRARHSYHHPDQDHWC
# Assay procedure: disruptors of CaV2.2 binding to Mint1 – biochemical, HTRF (AID 2073)
# Condition context: HTRF protein-protein interaction, Mint1-CaV2.2; at 20 µM
Out of some 290,000 compounds screened, about 570 (0.2%) were called active. About 1% were inconclusive and are not listed. Cut-off read from the data, not from the text of the source: active = inhibition mostly above about 51% (no sharp cut-off); inconclusive = no clear call, values can overlap the other calls; inactive = mostly below about 53%. Only a selection was taken, and actives are over-represented in it overall.
Pick one: yes (active), no (inactive)

Consider the worked cases shown below.
>>> class_assignment("CSc1nc(C)cc(-n2cc(F)c(=O)[nH]c2=O)n1")
"no"
>>> class_assignment("CN(C)c1nc(=NCc2ccco2)ss1")
"yes"

Query compound follows.
Recorded test call requested for Brc1ccc(/C=C/C=N/Nc2nc3ccccc3s2)cc1
no

---

Some molecules, each annotated with its measured inhibition.
# Study system: Voltage-dependent N-type calcium channel subunit alpha-1B (Homo sapiens)
# Assay procedure: disruptors of CaV2.2 binding to Mint1 – biochemical, HTRF (AID 2073)
# Condition context: HTRF protein-protein interaction, Mint1-CaV2.2; at 20 µM; stronger effect = higher value
About 570 (0.2%) of roughly 290,000 compounds were called active. About 1% were inconclusive and are not listed. Shown is part of a subset that was picked to be rich in actives.

>>> val("COc1cc(OC)c(C2CC(=O)N3CN(c4ccc(C)cc4)CSC3=C2C#N)cc1OC (configuration not stated)")
"65.7% (inactive)"

# lookup: inhibition of CCn1c(=O)cc(OCC(=O)Nc2ccc3c(c2)OCCO3)c2ccccc21
21.8% (inactive)

Record: CCOC(=O)c1c(N2C(=O)C3CC(C)=C(C)CC3C2=O)sc(C)c1C (configuration not stated)
-2.7% (inactive)

Would you kindly repeat that for COc1ccccc1N(CC(=O)N(CC(C)C)CC(C)C)S(=O)(=O)c1cccs1 ?
-4.4% (inactive)

Moving on to O=C(Nc1ccc(-c2nc3ccccc3o2)cc1)c1ccc2c(c1)OCO2
66.2% (active)

And then CCc1ccccc1N1CSC2=C(C#N)C(c3cc(OC)c(OC)cc3OC)CC(=O)N2C1 (configuration not stated) , what is it?
75.6% (inactive)

Could you do the same for Cc1c(CC(=O)NCC(=O)NCC(=O)O)c(=O)oc2cc3c(cc12)CCC(C)(C)O3 , please?
16.3% (inactive)
